Target: T1, human SIRP-α v1 (human, UniProt P78324 31-149)
T1 construct: also called Human v1; Human V1
T1 sequence (P78324 31-149 limits assumed): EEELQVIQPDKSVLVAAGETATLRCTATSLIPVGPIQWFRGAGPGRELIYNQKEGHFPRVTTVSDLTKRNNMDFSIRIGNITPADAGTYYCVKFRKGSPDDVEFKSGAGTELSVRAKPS
Assay Method Text: SPR
Quantity Name: pKd
Entry type: numeric. Quantity: pKd, the -log10 of concentration in molar units.

antibody 117 (antibody, V domains shown, also called S117) VH: VQLVESGGGVVRPGESLRLSCAASGFSFSSYAMNWVRQAPGEGLEWVSRINSGGGGTDYAESVKGRFTISRDNSENTLYLQMNSLRAEDTAVYYCAKQYDWNGFFDYWGLGALVTVSS VL: ETVLTQSPATLSVSPGERATLSCRASQTVGSKLAWHQQKPGQAPRLLIYDATNRATGIPDRFSGSGSGTDFTLTISSLQTEDSAVYYCQQYYYWPPYRFGGGTKVEIK ... 10.51
antibody 161 (antibody, V domains shown, also called S161) VH: DVQLVESGGGVVRPGESLRLSCAASGFTFSNFAMTWVRQAPGKGPEWVSLVSVTATTYYADSVKGRFTISRDNSKSTLYLQMNSLRAEDTAVYYCAKITWNNLFDYWGLGTLVTVSS VL: EIVLTQSPGTLSLSPGERATLSCRASQTVGSKLAWYQQKPGQAPRLLIYDSSSRASGIPDRFSGSGSGTDFTLTISSLQSEDSAVYYCQQHNDWPPYTFGGGTKVEIK ... 8.99

-- ask Need pKd, item antibody 173 (antibody, V domains shown, also called S173) VH: DVQLVESGGGVVRPGESLRLSCAASGFAFSDHDMSWVRQGPGEGLEWVAGISLRGGVTWYADSVKGRFTISRDNSKNTLYLRLFSLRTEDTAIYYCARESWNTFFDYWGLGTLVTVSS VL: EIVLTQSPGTLSLSPGETATLSCRASQNVRSNLAWYQQKPGQAPRLLIYDASSRATGIPDRFSGSGSGTDFTLTISSLQSEDFAVYYCQQYGNGPPLTFGGGTKVEIK
-- reply 9.03

-- ask Reported pKd, binder antibody 3 (antibody, V domains shown, also called AB3; S3) VH: AVTLDESGGGLQTPGGALSLVCKASGFIFSDYGMNWVRQAPGKGLEFVAQITSGSRTYYGAAVKGRATISRDNRQSTVKLQLNNLRAEDTGIYFCARDFGSGVGSIDAWGNGTEVIVSS VL: ALTQPASVSANLGGTVKITCSGSRGRYGWYQQRSPGSAPVTVIYRDNQRPSNIPSRFSSSTSGSTSTLTITGVQADDESVYFCGSYDGSIDIFGAGTTLTVL : ____
-- reply 9.79
